Give cytotoxicity at 70.5 h for every item shown.
TEST PROTOCOL: Human HepG2 cell viability assay in 384 well format
Type: toxicity, cell-based
Set-up: dose 125 nL, time 70.5 hour; concentration not given beside the values
RUN PARAMETERS: HepG2 cells, read-out: Inhibition
Answer format: numeric, % implied, no suffix.

Ask: Recorded cytotoxicity at 70.5 h of O=c1oc(-c2cccs2)nn1CC(O)c1ccccc1F (stereo not given) , please.
Reply: -4.66

Ask: Proceed to FC(F)(F)c1ccnc(N2CCC(c3nccn3CC3CC3)CC2)n1
Reply: -4.46

Ask: Proceed to CCN1Cc2ccccc2CC2(CCN(C)CC2)C1=O
Reply: -7.96

Ask: Proceed to OC1CN(Cc2ccccc2)CCN(c2ccncc2)C1 (stereo not given)
Reply: 11.5

Ask: Proceed to O=C(O)CSc1nnc(-c2cn[nH]c2)n1-c1ccccc1Cl
Reply: 17.6

Ask: Proceed to N#Cc1ccc(CN2CCC(CN3CCOCC3)C2)cc1 (stereo not given)
Reply: -5.35

Ask: Proceed to O=C(NC1CC1)C1CN(c2nc3ccccc3s2)CCN1 (stereo not given)
Reply: -7.94

Ask: Proceed to CCCNC(=O)c1cc2c(s1)CCN2C(=O)CN(C)C
Reply: -14.4

Ask: Proceed to CCOc1cccc(NCc2cnc(N3CCN(C)CC3)nc2)n1
Reply: 3.56

Ask: Proceed to O=C(Nc1cccc(CN2CCOC2=O)c1)N1CCCC1
Reply: -6.57

Ask: Proceed to COCCNc1nc(C2CCCC2)nc2c1CCNCC2
Reply: 2.05

Ask: Proceed to Cc1cccc(CNC(=O)CC2CCN(C(=O)C(C)C)CC2)n1
Reply: 6.37

Ask: Proceed to Cc1cc(C)n(C2CCCN(C(=O)c3ccc(F)c(F)c3)C2)n1 (stereo not given)
Reply: 9.19

Ask: Proceed to COCc1cc(N(Cc2ccsc2)C2CC2)n2ncnc2n1
Reply: -6.87

Ask: Proceed to CC(C)(C)n1ncc(NCCc2ccccc2C(F)(F)F)c(Cl)c1=O
Reply: 33

Where do these numbers come from? They come from ChEMBL document CHEMBL3507680.
